These measurements were taken from ChEMBL document CHEMBL1128861.

Could you please report measured pKB for the items listed next?
Biological target: Serotonin 3 (5-HT3) receptor (Homo sapiens) (UniProt P46098+A5X5Y0+O95264+Q70Z44+Q8WXA8)
Assay: Binding affinity against 5-hydroxytryptamine 3 receptor of guinea pig ileum
Assay type: tissue-based
Conditions: Cavia porcellus, target entry is the homologue from another species

Asked: Given the entry Cn1c2c(c3ccccc31)C(=O)C(CN1CCC(c3ccccc3)CC1)CC2 (configuration not stated) , what pKB was observed with Serotonin 3 (5-HT3) receptor (Homo sapiens) (UniProt P46098+A5X5Y0+O95264+Q70Z44+Q8WXA8)?
Given back: < 5.2

Asked: Repeat for the following compound: Cn1c2c(c3ccccc31)C(=O)C(CN1CCCCC1)CC2 (configuration not stated)
Given back: < 5.3

Asked: Repeat for the following compound: Cn1c2c(c3ccccc31)C(=O)C(CN1CCC(C(=O)c3ccc(F)cc3)CC1)CC2 (racemic)
Given back: < 5.7

Asked: Repeat for the following compound: Cn1c2c(c3ccccc31)C(=O)C(CN1CCN(c3ccc(F)cc3)CC1)CC2 (configuration not stated)
Given back: < 5.5

Asked: Repeat for the following compound: Cn1c2c(c3ccccc31)C(=O)C(CN1CCC(C(=O)c3ccccc3)CC1)CC2 (configuration not stated)
Given back: < 5.5

Asked: Repeat for the following compound: CN(CCn1c(=O)[nH]c2ccccc2c1=O)CC1CCc2c(c3ccccc3n2C)C1=O (configuration not stated)
Given back: < 5.7

Asked: Repeat for the following compound: Cn1c2c(c3ccccc31)C(=O)C(CN1CCN(c3ccccc3F)CC1)CC2 (configuration not stated)
Given back: < 5.2

###

Molecular target: Histamine H1 receptor (Cavia porcellus) (UniProt P31389)
Sequence (P31389 whole entry): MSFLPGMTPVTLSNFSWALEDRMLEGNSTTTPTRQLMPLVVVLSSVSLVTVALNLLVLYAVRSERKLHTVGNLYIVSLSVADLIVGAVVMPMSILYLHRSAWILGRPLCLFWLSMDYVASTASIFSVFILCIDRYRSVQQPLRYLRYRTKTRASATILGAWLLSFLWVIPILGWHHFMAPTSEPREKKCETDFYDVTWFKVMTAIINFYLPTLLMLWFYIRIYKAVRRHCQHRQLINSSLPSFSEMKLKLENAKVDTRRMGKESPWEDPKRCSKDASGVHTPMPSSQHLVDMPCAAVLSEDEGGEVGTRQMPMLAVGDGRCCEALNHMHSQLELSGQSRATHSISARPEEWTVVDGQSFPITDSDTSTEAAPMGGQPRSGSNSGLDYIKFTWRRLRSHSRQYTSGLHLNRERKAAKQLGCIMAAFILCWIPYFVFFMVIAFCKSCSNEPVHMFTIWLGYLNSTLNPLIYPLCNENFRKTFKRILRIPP
Test: Affinity for H1 histamine receptor of guinea pig ileum
Assay type: tissue-based
property: pKB
// return just the number, without any unit appended

Asked: Given the compound Cn1c2c(c3ccccc31)C(=O)C(CN1CC=C(c3c[nH]c4ccccc34)CC1)CC2 (stereo not drawn) , what is its reported pKB?
Given back: 6.62

Asked: Repeat for the following compound: Cn1c2c(c3ccccc31)C(=O)C(CN1CCC(=C(c3ccc(F)cc3)c3ccc(F)cc3)CC1)CC2 (stereo not drawn)
Given back: 7.41

Asked: Repeat for the following compound: Cn1c2c(c3ccccc31)C(=O)C(CN1CCN(c3ccc(F)cc3)CC1)CC2 (stereo not drawn)
Given back: 6.74
